Test system: EV71
Test: Cell-based screening, EV71 in Vero cells (Example 2)
Set-up: species or system enterovirus 71
Conditions: Enterovirus A, EV71; Vero cells; read-out: Inhibition [ED50 (μM)] against various viruses: Picornavirus, EV71
Method: 3. Cell-based screening of inhibitor. The effects of each inhibitor on the viral replication were examined. The list of viruses and corresponding cell lines are listed above in Table 2. […] The virus infected cells were further incubated for up to 96 hrs, and the replication of virus was measured by TCID50 assay with the 10-fold dilution of each sample used for virus titration (Reed and Muench, 1938). […] The IC50s of the compounds were calculated.
ASSAY_METRIC: EC50 (µM)
Give bare numbers, in µM.

COMPOUND	OUTPUT_UNIT	READOUT_VALUE
CC(C)C[C@H](NC(=O)OCc1ccccc1)C(=O)N[C@H](C=O)C[C@@H]1CCNC1=O	µM	11

Now for a further compound.
# lookup: EC50 of CC(C)C[C@H](NC(=O)OCc1ccccc1)C(=O)N[C@@H](CC1CCNC1=O)C(O)S(=O)(=O)O (some centres unmarked)
10

----------
biological target: FMDV 3Cpro (codon-optimized, N-terminal 6 His, recombinant) (Foot-and-mouth disease virus serotype O); test: biochemical
Sequence (P03305 1650-1862 limits assumed): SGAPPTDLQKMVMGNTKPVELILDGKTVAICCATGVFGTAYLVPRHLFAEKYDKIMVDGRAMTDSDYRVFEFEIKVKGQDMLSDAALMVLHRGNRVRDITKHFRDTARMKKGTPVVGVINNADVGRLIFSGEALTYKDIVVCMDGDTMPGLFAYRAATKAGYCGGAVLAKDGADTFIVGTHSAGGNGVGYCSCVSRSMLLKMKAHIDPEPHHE
ASSAY_METRIC: IC50 (nM)
Give bare numbers, in nM.

Given the compound CC(C)C[C@H](NC(=O)OCc1ccccc1)C(=O)N[C@@H](CC1CCNC1=O)C(O)S(=O)(=O)O (stereo partly shown) , what is its reported IC50?
1160

----------
system: MNV-1; assay: Cell-based screening, MNV-1 in RAW267.4 cells (Example 2); design: species or system murine norovirus; conditions: Norwalk virus; RAW267.4 cells; read-out: Inhibition [ED50 (μM)] against various viruses: Calicivirus, MNV-1
ASSAY_METRIC: EC50 (µM)
Numbers only, in µM.

MOLECULE	TARGET_UNDER_TEST	OUTPUT_UNIT	EC50
CC(C)C[C@H](NC(=O)OCc1ccccc1)C(=O)N[C@@H](CC1CCNC1=O)C(O)S(=O)(=O)O (some centres unmarked) [GC376]	MNV-1	µM	5.3

Form entry - test system: MNV-1; read-out: EC50; molecule: CC(C)C[C@H](NC(=O)OCc1ccccc1)C(=O)N[C@H](C=O)C[C@@H]1CCNC1=O [GC373]
6.5

----------
System: HAV
Assay: Cell-based screening, HAV (Example 2)
Set-up: species or system hepatitis A virus
Details: Picornaviridae, read-out: Inhibition [ED50 (μM)] against various viruses: Picornavirus, HAV
Description: 3. Cell-based screening of inhibitor. The effects of each inhibitor on the viral replication were examined. The list of viruses and corresponding cell lines are listed above in Table 2. […] The virus infected cells were further incubated for up to 96 hrs, and the replication of virus was measured by TCID50 assay with the 10-fold dilution of each sample used for virus titration (Reed and Muench, 1938). […] The IC50s of the compounds were calculated.
ASSAY_METRIC: EC50 (µM)
One number for each entry, in µM.

# query: EC50 | item CC(C)C[C@H](NC(=O)OCc1ccccc1)C(=O)N[C@@H](CC1CCNC1=O)C(=O)C(=O)NC(C)C (stereo partly shown) | system: HAV
20

----------
tested on: FIPV-1146; experiment: FIPV-1146 replication in CRFK cells, TCID50 method; format: cell-based, feline coronavirus; conditions: MOI 0.05, mean ± SEM, 48 hr post infection, read-out: Inhibition [ED50 (μM)] against FIPV-1146, 48 hrs
ASSAY_METRIC: EC50

MOLECULE	TARGET_UNDER_TEST	EC50
CCCNC(=O)[C@H]1O[C@@H]1C(=O)N[C@H](C(=O)N1CCC[C@H]1C(=O)OC)[C@@H](C)CC (relative stereo) [CA074-Me, reference compound]	FIPV-1146	> 10 µM

Any idea what EC50 was measured for CCOC(=O)[C@H]1O[C@@H]1C(=O)N[C@@H](CC(C)C)C(=O)NCCC(C)C (relative stereo) [Inhibitor E64d, reference compound] ?
> 10 µM
